experiment: Solubility; format: physicochemical; details: lipid or water
TEST READOUT: Solubility

Examples with answers:
[
  {
    "MOLECULE": "CCCOC(=O)c1cc(O)c(O)c(O)c1 [PG, propyl gallate]",
    "Solubility": "lipid"
  },
  {
    "MOLECULE": "O=C(/C=C/c1ccc(O)c(O)c1)O[C@H](Cc1ccc(O)c(O)c1)C(=O)O [sodium rosmarinate]",
    "Solubility": "water"
  },
  {
    "MOLECULE": "Cc1cc(C(C)(C)C)c(O)c(C(C)(C)C)c1 [BHT, butylated hydroxytoluene]",
    "Solubility": "lipid"
  },
  {
    "MOLECULE": "Cc1c(C)c2c(c(C)c1O)CCC(C)(C(=O)O)O2 (centres unmarked)",
    "Solubility": "water"
  }
]

--- query ---
Query: Any idea what its Solubility is? The molecule is CC(C)(C)c1cc(O)ccc1O [TBHQ, tertiary-butylhydroxyquinone]
Reply: lipid
